Assay name: Pharmacokinetics of intraperitoneal or intravenous injection in CD1 mice (plasma, LC/MS/MS)
Format: in vivo
Setup conditions: male, CD1, mouse, plasma, ip, 10 mg/kg, IP 10 mg/kg, 4 h, read-out: Conc. Mean

{"columns": ["Structure as smiles", "concentration at 4 h"],
 "data": [
  ["COc1cc2c(Oc3ccc(NC(=O)C4(C(=O)Nc5ccc(F)cc5)CC4)cc3F)ccnc2cc1OCCCOCCCOCCC(=O)N[C@H](C(=O)N1C[C@H](O)C[C@H]1C(=O)NCc1ccc(-c2scnc2C)cc1)C(C)(C)C", "4520 ng/mL"]
]}

----------
Assay name: Pharmacokinetics of intraperitoneal or intravenous injection in CD1 mice (plasma, LC/MS/MS)
Type: in vivo
Setup conditions: male, CD1, mouse, plasma, iv, 1 mg/kg, IV 1.0 mg/kg, 2 h, read-out: Conc. Mouse 3

{"columns": ["Structure as smiles", "concentration at 2 h [ng/mL]"],
 "data": [
  ["COc1cc2c(Oc3ccc(NC(=O)C4(C(=O)Nc5ccc(F)cc5)CC4)cc3F)ccnc2cc1OCCCOCCCOCCC(=O)N[C@H](C(=O)N1C[C@H](O)C[C@H]1C(=O)NCc1ccc(-c2scnc2C)cc1)C(C)(C)C", 62.3]
]}
